assay: Acute toxicity (LD50, method of Litchfield and Wilcoxon) in the mouse; conditions: in vivo, oral administration, read-out: LD50
Counter-ions that a name gives are not always drawn.

Compound: CCCCNCC1COC(c2ccc(Cl)cc2)(c2cc3ccccc3o2)O1 (stereo not shown) [ITA 362 maleate]
LD50: > 4000 mg/kg

###

experiment: Acute toxicity (LD50, method of Litchfield and Wilcoxon) in the rat; conditions: in vivo, ip, intraperitoneal administration, read-out: LD50 and confidence limits
Where a name gives a salt, the structure may show the parent alone.

Molecule: CCCCNCC1COC(c2ccc(Cl)cc2)(c2cc3ccccc3o2)O1 (stereo not shown) [ITA 362 maleate]
Unit tag: mg/kg
LD50: 105

###

assay: Acute toxicity (LD50, method of Litchfield and Wilcoxon) in the mouse; conditions: in vivo, ip, intraperitoneal administration, read-out: LD50 and confidence limits
Where a name gives a salt, the structure may show the parent alone.

Compound: CCCCNCC1COC(c2ccc(Cl)cc2)(c2cc3ccccc3o2)O1 (stereo not shown) [ITA 362 maleate]
LD50, mg/kg: 106
